Biological target: 5-HT transport protein (SERT) (Rattus norvegicus, UniProt P31652)
Construct: Preparation of Membrane Proteins in Rat Hippocampi; from tissue; host or cells: Wistar rat hippocampus
Sequence (P31652 whole entry): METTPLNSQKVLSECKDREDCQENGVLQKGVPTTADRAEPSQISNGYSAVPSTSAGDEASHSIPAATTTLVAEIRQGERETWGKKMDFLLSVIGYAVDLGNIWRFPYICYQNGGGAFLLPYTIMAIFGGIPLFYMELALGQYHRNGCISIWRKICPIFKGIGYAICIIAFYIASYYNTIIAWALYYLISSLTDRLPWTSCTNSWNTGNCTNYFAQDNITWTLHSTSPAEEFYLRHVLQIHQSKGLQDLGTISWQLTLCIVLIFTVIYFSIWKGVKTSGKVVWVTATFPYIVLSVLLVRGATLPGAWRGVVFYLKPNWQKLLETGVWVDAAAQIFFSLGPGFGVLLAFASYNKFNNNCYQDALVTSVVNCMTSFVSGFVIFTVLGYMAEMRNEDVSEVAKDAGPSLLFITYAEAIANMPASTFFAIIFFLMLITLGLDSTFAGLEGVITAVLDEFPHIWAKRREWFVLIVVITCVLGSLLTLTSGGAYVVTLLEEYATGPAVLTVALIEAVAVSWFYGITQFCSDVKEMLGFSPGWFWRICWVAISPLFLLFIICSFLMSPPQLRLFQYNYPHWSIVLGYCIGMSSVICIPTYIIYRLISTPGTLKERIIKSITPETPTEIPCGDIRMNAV
Experiment: Screening: competitive binding test to SERT using [3H]-citalopram
Conditions: compound 10^-7 mol/L; [3H]-citalopram 1 nM; read-out: Inhibition percent (I %), competitive binding to 5-HT transport protein (SERT)
Recorded inhibition at 0.1 µM by entry
Entry rule: numbers only, all in %.

Illustrative cases are given below, each with its answer.
O=c1ccc(Br)cn1CC1(O)CCN(Cc2ccccc2)CC1 [Compound 5] | 77
O=c1ccc(Br)cn1CC1(O)CCN(Cc2ccccc2F)CC1 [Compound 6] | 44
O=c1ccccn1CC1(O)CCN(Cc2ccccc2)CC1 [Compound 1] | 84

Turning now to a further record.
Item O=c1ccccn1CC1(O)CCN(Cc2ccccc2F)CC1 [Compound 2] : provide inhibition at 0.1 µM
50

* * *

# inhibition at 10 µM values compiled below
Biological target: 5-HT1A receptor (Rattus norvegicus, UniProt P19327)
Construct: the content of 5-HT1A receptor extracted from rat hippocampi was 5.5 mg/ml; from tissue; host or cells: Wistar rat hippocampus, membrane preparation
Sequence (P19327 whole entry): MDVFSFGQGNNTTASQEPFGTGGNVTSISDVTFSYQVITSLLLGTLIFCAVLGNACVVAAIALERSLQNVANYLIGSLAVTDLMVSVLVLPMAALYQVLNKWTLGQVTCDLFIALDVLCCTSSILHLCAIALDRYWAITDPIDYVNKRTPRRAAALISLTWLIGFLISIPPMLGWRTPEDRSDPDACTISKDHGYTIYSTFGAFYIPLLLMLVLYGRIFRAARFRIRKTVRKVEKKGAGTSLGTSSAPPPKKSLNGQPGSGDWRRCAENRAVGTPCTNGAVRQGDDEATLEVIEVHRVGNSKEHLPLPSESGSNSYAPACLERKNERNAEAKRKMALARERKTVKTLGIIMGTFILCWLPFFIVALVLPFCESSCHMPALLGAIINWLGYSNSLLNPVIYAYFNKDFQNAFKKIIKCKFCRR
Assay: Screening: competitive binding test to 5-HT1A receptor using [3H]-8-OH-DPAT, rat hippocampi membrane protein
Details: compound 10^-5 mol/L, [3H]-8-OH-DPAT 1.28 nM, read-out: Inhibition percent (I %), competitive binding to 5-HT1A receptor
Protocol: 1.4.1 Screening of YL Series Compounds (1) Preparation of Membrane Proteins in Rat Hippocampi […] 8) Then samples were applied to 49-type glass fibre filter, vacuum suction filtered, then washed three times with 2 ml ice-cold Tris-HCl buffer solution (50 mM Tris-HCl buffer solution, 1 mM EDTA, 5 mM MgCl2, 1 mM PMSF, 0.1% NaN3, 3 μg/ml proteinase inhibitor, pH 7.4). […] The radio-activity was measured by a scintillation counter.
Your answer should be a plain number; it is taken to be in %.

O=c1ccccn1CC1(O)CCN(Cc2ccccc2)CC1 | 100
O=c1ccccn1CC1(O)CCN(Cc2ccc(F)cc2)CC1 | 100

System 5-HT1A receptor (Rattus norvegicus, UniProt P19327). Read-out inhibition at 10 µM. Item O=c1ccc(Br)cn1CC1(O)CCN(Cc2ccccc2F)CC1 . Report value.
100

Identify measured inhibition at 10 µM obtained with 5-HT1A receptor (Rattus norvegicus, UniProt P19327) for O=c1ccccn1CC1(O)CCN(Cc2ccccc2F)CC1 .
100

Look up 5-HT1A receptor (Rattus norvegicus, UniProt P19327) data: inhibition at 10 µM of O=c1ccc(Br)cn1CC1(O)CCN(Cc2ccccc2)CC1 , then report it.
94

* * *

Overview of recorded Inhibition percent (I %), competitive binding to 5-HT1A receptor for various compounds
Biological target: 5-HT1A receptor (Rattus norvegicus)
Construct: the content of 5-HT1A receptor extracted from rat hippocampi was 5.5 mg/ml; from tissue; host or cells: Wistar rat hippocampus, membrane preparation
Experiment: Screening: competitive binding test to 5-HT1A receptor using [3H]-8-OH-DPAT, rat hippocampi membrane protein
Details: compound 10^-5 mol/L, [3H]-8-OH-DPAT 1.28 nM
Could you give me the number in %? Just the number is fine.

Example cases with answers are listed next.
O=c1ccc(Br)cn1CC1(O)CCN(Cc2ccc(F)cc2F)CC1 [Compound 8] | 42
Cc1ccn(CC2(O)CCN(Cc3ccccc3F)CC2)c(=O)c1 [Compound 10] | 76

# assay system 5-HT1A receptor (Rattus norvegicus): give Inhibition percent (I %), competitive binding to 5-HT1A receptor of O=c1ccccn1CC1(O)CCN(Cc2ccc(F)cc2F)CC1 [Compound 4]
100

Give Inhibition percent (I %), competitive binding to 5-HT1A receptor for this entry on 5-HT1A receptor (Rattus norvegicus): Cc1ccn(CC2(O)CCN(Cc3ccc(F)cc3F)CC2)c(=O)c1 [Compound 12]
61
